Below, each entry is listed alongside its reported IC50.
# Test system: μ opioid receptors (GPI)
# assay info: Guinea pig isolated ileum (GPI) assay, opioid agonist;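 also: inhibition of electrically evoked contractions (0.1 Hz, 0.4 msec, supramaximal voltage) in organ baths at 37 °C, contraction height 3 min after each cumulative dose versus the 1 min before dosing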
# test settings: Table 39; read-out: GPI/LMMP opioid(mu) agonist (IC50; nM)
Peptide text beside a SMILES is read from it.
Only the number, expressed in nM, is required.

Completed entries (count: 5):
[[record]]
molecule = "CC(C)C[C@H](NC(=O)[C@@H]1CCCN1C(=O)CNC(=O)[C@H](Cc1ccccc1)NC(=O)CNC(=O)[C@@H](C)NC(=O)[C@@H](N)Cc1ccc(O)cc1)C(=O)N[C@@H](Cc1c[nH]c2ccccc12)C(=O)OCc1cc(C(F)(F)F)cc(C(F)(F)F)c1 [TY006] (HELM PEPTIDE1{Y.[dA].G.F.G.P.L.W.[FC(F)(F)c1cc(CO[*:1])cc(C(F)(F)F)c1]}$$$$V2.0)"
units = "nM"
val = 384

[[record]]
molecule = "CC(C)C[C@H](NC(=O)[C@@H]1CCCN1C(=O)[C@H]1CSSC[C@@H](NC(=O)[C@@H](N)Cc2ccc(O)cc2)C(=O)NCC(=O)N[C@@H](Cc2ccccc2)C(=O)N1)C(=O)N[C@@H](Cc1c[nH]c2ccccc12)C(=O)NCc1cc(C(F)(F)F)cc(C(F)(F)F)c1 [TY037, [D-Cys^2, D-Cys^5]TY027]"
units = "nM"
val = 284

[[record]]
molecule = "CSCC[C@H](NC(=O)[C@H](Cc1ccccc1)NC(=O)CNC(=O)[C@@H](C)NC(=O)[C@@H](N)Cc1ccc(O)cc1)C(=O)N1CCC[C@H]1C(=O)N[C@@H](CC(C)C)C(=O)N[C@@H](Cc1c[nH]c2ccccc12)C(=O)N(C)Cc1cc(C(F)(F)F)cc(C(F)(F)F)c1 [TY028]"
units = "nM"
val = 971

[[record]]
molecule = "CC(C)C[C@H](NC(=O)[C@@H]1CCCN1C(=O)[C@H](CC[S+](C)[O-])NC(=O)[C@H](Cc1ccccc1)NC(=O)CNC(=O)[C@@H](C)NC(=O)[C@@H](N)Cc1ccc(O)cc1)C(=O)N[C@@H](Cc1c[nH]c2ccccc12)C(=O)OCc1cc(C(F)(F)F)cc(C(F)(F)F)c1 (stereo partly shown) [TY023]"
units = "nM"
val = 154

[[record]]
molecule = "CSCC[C@H](NC(=O)[C@H](Cc1ccccc1)NC(=O)CNC(=O)[C@@H](C)NC(=O)[C@@H](N)Cc1ccc(O)cc1)C(=O)N1CCC[C@H]1C(=O)N[C@@H](CC(C)C)C(=O)N[C@@H](Cc1c[nH]c2ccccc12)C(=O)O [TY043]"
units = "nM"
val = 272


query: μ opioid receptors (GPI) / IC50 / COc1cc(COC(=O)[C@H](Cc2c[nH]c3ccccc23)NC(=O)[C@H](CC(C)C)NC(=O)[C@@H]2CCCN2C(=O)[C@H](CCSC)NC(=O)[C@H](Cc2ccccc2)NC(=O)CNC(=O)[C@@H](C)NC(=O)[C@@H](N)Cc2ccc(O)cc2)cc(OC)c1 [TY030] : value?
result: 31

query: μ opioid receptors (GPI) / IC50 / CSCC[C@H](NC(=O)[C@H](Cc1ccccc1)NC(=O)CNC(=O)[C@@H](C)NC(=O)[C@@H](N)Cc1ccc(O)cc1)C(=O)N1CCC[C@H]1C(=O)N[C@@H](CC(C)C)C(=O)N[C@@H](Cc1c[nH]c2ccccc12)C(=O)OCc1cc(C(F)(F)F)cc(C(F)(F)F)c1 [TY005] : value?
result: 359

====

# measurement target: δ opioid receptors (MVD) (Mus musculus)
# Construct: from tissue; host or cells: mouse (ICR) isolated vas deferens
# assay info: Mouse isolated vas deferens (MVD) assay, opioid agonist
# test settings: Table 28; read-out: MVD Opioid (d) Agonist (IC50; nM)
Peptide text beside a SMILES is read from it.
Below, each entry is listed alongside its reported IC50.
Only the number, expressed in nM, is required.

Completed entries (count: 4):
[[record]]
molecule = "CC(C)C[C@H](NC(=O)[C@@H]1CCCN1C(=O)[C@H](CC[S+](C)[O-])NC(=O)[C@H](Cc1ccccc1)NC(=O)CNC(=O)[C@@H](C)NC(=O)[C@@H](N)Cc1ccc(O)cc1)C(=O)N[C@@H](Cc1c[nH]c2ccccc12)C(=O)OCc1cc(C(F)(F)F)cc(C(F)(F)F)c1 (some centres unmarked)"
units = "nM"
val = 33

[[record]]
molecule = "CC(C)C[C@H](NC(=O)[C@@H]1CCCN1C(=O)[C@H](Cc1ccccc1)NC(=O)[C@H](Cc1ccccc1)NC(=O)CNC(=O)[C@@H](C)NC(=O)[C@@H](N)Cc1ccc(O)cc1)C(=O)N[C@@H](Cc1c[nH]c2ccccc12)C(=O)OCc1cc(C(F)(F)F)cc(C(F)(F)F)c1"
units = "nM"
val = 905

[[record]]
molecule = "CC(C)C[C@H](NC(=O)[C@@H]1CCCN1C(=O)CNC(=O)[C@H](Cc1ccccc1)NC(=O)CNC(=O)[C@@H](C)NC(=O)[C@@H](N)Cc1ccc(O)cc1)C(=O)N[C@@H](Cc1c[nH]c2ccccc12)C(=O)OCc1cc(C(F)(F)F)cc(C(F)(F)F)c1 [TY006] (HELM PEPTIDE1{Y.[dA].G.F.G.P.L.W.[FC(F)(F)c1cc(CO[*:1])cc(C(F)(F)F)c1]}$$$$V2.0)"
units = "nM"
val = 172

[[record]]
molecule = "CCCC[C@@H](C(=O)N1CCC[C@H]1C(=O)N[C@@H](CC(C)C)C(=O)N[C@@H](Cc1c[nH]c2ccccc12)C(=O)OCc1cc(C(F)(F)F)cc(C(F)(F)F)c1)N(C)C(=O)[C@H](Cc1ccccc1)NC(=O)CNC(=O)[C@@H](C)NC(=O)[C@@H](N)Cc1ccc(O)cc1"
units = "nM"
val = 188


Now for the molecule whose IC50 we want.
query: Fill in: IC50 of CC(C)C[C@H](NC(=O)[C@@H]1CCCN1C(=O)[C@@H](Cc1ccccc1)NC(=O)[C@H](Cc1ccccc1)NC(=O)CNC(=O)[C@@H](C)NC(=O)[C@@H](N)Cc1ccc(O)cc1)C(=O)N[C@@H](Cc1c[nH]c2ccccc12)C(=O)OCc1cc(C(F)(F)F)cc(C(F)(F)F)c1 is ___
result: 412

====

Below, each entry is listed alongside its reported pIC50.
# measurement target: δ opioid receptors (MVD) (Mus musculus, UniProt P32300)
# Construct: from tissue; host or cells: mouse (ICR) isolated vas deferens
# Sequence (P32300 whole entry): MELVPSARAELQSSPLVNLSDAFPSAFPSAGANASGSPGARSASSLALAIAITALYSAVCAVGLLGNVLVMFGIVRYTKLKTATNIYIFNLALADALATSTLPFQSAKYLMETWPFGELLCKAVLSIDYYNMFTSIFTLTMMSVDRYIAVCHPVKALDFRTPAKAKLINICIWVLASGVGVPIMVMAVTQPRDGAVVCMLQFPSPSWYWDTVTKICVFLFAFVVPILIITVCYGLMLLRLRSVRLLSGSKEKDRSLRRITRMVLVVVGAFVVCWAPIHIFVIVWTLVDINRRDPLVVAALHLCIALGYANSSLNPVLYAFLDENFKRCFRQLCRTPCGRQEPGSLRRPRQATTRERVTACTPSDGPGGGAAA
# assay info: Mouse isolated vas deferens (MVD) assay, opioid agonist
# test settings: electrically stimulated isolated tissue; read-out: MVD (δ), IC50
Peptide text beside a SMILES is read from it.
Would you please state pIC50, meaning minus log10 of the concentration in mol/L, as a bare number?

Completed entries (count: 4):
[[record]]
compound = "CCCC[C@@H]1NC(=O)[C@H](Cc2ccccc2)NC(=O)CNC(=O)[C@H](NC(=O)[C@@H](N)Cc2ccc(O)cc2)CSSC[C@H](C(=O)N[C@@H](Cc2c[nH]c3ccccc23)C(=O)NCc2cc(C(F)(F)F)cc(C(F)(F)F)c2)NC(=O)[C@@H]2CCCN2C1=O [TY038, [D-Cys^2, D-Cys^7]TY027] (HELM PEPTIDE1{Y.[dC].G.F.[Nle].P.[dC].W.[FC(F)(F)c1cc(CN[*:1])cc(C(F)(F)F)c1]}$PEPTIDE1,PEPTIDE1,2:R3-7:R3$$$V2.0; N-terminus assumed)"
measurement_target = "δ opioid receptors (MVD) (Mus musculus, UniProt P32300)"
val = 7.72

[[record]]
compound = "CC(C)C[C@H](NC(=O)[C@@H]1CCCN1C(=O)[C@H](Cc1ccccc1)NC(=O)[C@H](Cc1ccccc1)NC(=O)CNC(=O)[C@@H](C)NC(=O)[C@@H](N)Cc1ccc(O)cc1)C(=O)N[C@@H](Cc1c[nH]c2ccccc12)C(=O)OCc1cc(C(F)(F)F)cc(C(F)(F)F)c1"
measurement_target = "δ opioid receptors (MVD) (Mus musculus, UniProt P32300)"
val = 6.04

[[record]]
compound = "CC(C)C[C@H](NC(=O)[C@@H]1CCCN1C(=O)CNC(=O)[C@H](Cc1ccccc1)NC(=O)CNC(=O)[C@@H](C)NC(=O)[C@@H](N)Cc1ccc(O)cc1)C(=O)N[C@@H](Cc1c[nH]c2ccccc12)C(=O)OCc1cc(C(F)(F)F)cc(C(F)(F)F)c1 [TY006] (HELM PEPTIDE1{Y.[dA].G.F.G.P.L.W.[FC(F)(F)c1cc(CO[*:1])cc(C(F)(F)F)c1]}$$$$V2.0)"
measurement_target = "δ opioid receptors (MVD) (Mus musculus, UniProt P32300)"
val = 6.77

[[record]]
compound = "CC(C)C[C@H](NC(=O)[C@@H]1CCCN1C(=O)[C@H](CC(C)C)NC(=O)[C@H](Cc1ccccc1)NC(=O)CNC(=O)[C@@H](C)NC(=O)[C@@H](N)Cc1ccc(O)cc1)C(=O)N[C@@H](Cc1c[nH]c2ccccc12)C(=O)OCc1cc(C(F)(F)F)cc(C(F)(F)F)c1"
measurement_target = "δ opioid receptors (MVD) (Mus musculus, UniProt P32300)"
val = 7.00


Now for the compound whose pIC50 we want.
query: Fill in: pIC50 of CCCC[C@@H](C(=O)N1CCC[C@H]1C(=O)N[C@@H](CC(C)C)C(=O)N[C@@H](Cc1c[nH]c2ccccc12)C(=O)OCc1cc(C(F)(F)F)cc(C(F)(F)F)c1)N(C)C(=O)[C@H](Cc1ccccc1)NC(=O)CNC(=O)[C@@H](C)NC(=O)[C@@H](N)Cc1ccc(O)cc1 is ___
result: 6.73
